Consider the following compounds; for each one, report its TGI.
# Test system: SK-MEL-2 melanoma
# protocol_text: NCI tumour cell line growth inhibition, 48 h

Task: Looking for the measured TGI of CCC(=C(c1ccc(OCCN2CCCC2)cc1)c1ccc(OCCN2CCCC2)cc1)c1ccc(Cl)cc1 , can you help?
Result: 1.35 µM

Task: Looking for the measured TGI of CCOC(=O)c1csc(-c2cn(C)c3c2C(=O)C(OC)=CC3=O)n1 , can you help?
Result: > 78 µM

Task: Looking for the measured TGI of OCC1OC(n2cnc3c(NCc4ccco4)ncnc32)C(O)C1O (centres undefined) , can you help?
Result: 31.6 µM

Task: Looking for the measured TGI of COc1ccc(NC(=O)c2cccc(C3CCc4c(cc(OC)c(OC)c4OC)O3)c2)cc1 (centres undefined) , can you help?
Result: 8.79 µM

Task: Looking for the measured TGI of Cc1ccc(CN2CCN(Cc3ccc(C)o3)C(C)C2)o1 (centres undefined) , can you help?
Result: > 100 µM

Task: Looking for the measured TGI of CCOC(=O)CCn1cnc(N)n1 , can you help?
Result: > 100 µM

Task: Looking for the measured TGI of CC1N=C(c2ccccc2)OC1=O (centres undefined) , can you help?
Result: > 100 µM

Task: Looking for the measured TGI of C=CCC1C(=O)CC2(C)C(CC=C)C(=O)CC12C (centres undefined) , can you help?
Result: > 100 µM

Task: Looking for the measured TGI of Cc1cn(C2CC(O)C(COC(N)=O)O2)c(=O)[nH]c1=O (centres undefined) , can you help?
Result: > 100 µM

Task: Looking for the measured TGI of Cc1cnc2[nH]c(-c3ccc(Cl)cc3)cc(=O)c2c1 , can you help?
Result: > 100 µM

Task: Looking for the measured TGI of CC(=O)OCC1=CC2CCC3C(C)(CCC[C@]3(C)COC(C)=O)C23CC[C@H]1C3 (some centres undefined) , can you help?
Result: > 100 µM

Task: Looking for the measured TGI of CCc1cccc(NC(=O)c2cc(/C=C/c3ccccc3)[nH]c(=S)n2)c1 , can you help?
Result: > 100 µM

Task: Looking for the measured TGI of CC[P+]1(c2ccccc2)CCCCC1 , can you help?
Result: > 100 µM

Task: Looking for the measured TGI of Cc1ccc(C2C3Cc4ccccc4C3=NN2c2ccc(S(=O)(=O)NC(=O)Nc3ccccc3)cc2)cc1 (centres undefined) , can you help?
Result: 31.5 µM

Task: Looking for the measured TGI of C/C(=N/N)c1sc(-c2nc(C)c(/C(C)=N\N)s2)nc1C , can you help?
Result: > 100 µM

Task: Looking for the measured TGI of O=C1NC(N2CCCCC2)=N/C1=C\c1ccco1 , can you help?
Result: > 100 µM

Task: Looking for the measured TGI of CC(=N/NC(N)=S)/C(C)=N/NC(N)=S , can you help?
Result: > 100 µM

Task: Looking for the measured TGI of C=C1C(C(=O)O)C1C(=O)O (centres undefined) , can you help?
Result: > 100 µM

Task: Looking for the measured TGI of CC(C)(C)NC(=S)N/N=C/c1ccccn1 , can you help?
Result: > 100 µM

Task: Looking for the measured TGI of O=C(CC1Sc2ccccc2NC1=O)NNc1ccc(F)cc1 (centres undefined) , can you help?
Result: > 100 µM

Task: Looking for the measured TGI of O=C(Nc1cc2cc([N+](=O)[O-])ccc2oc1=O)c1cccs1 , can you help?
Result: > 100 µM

Task: Looking for the measured TGI of CCOC(=O)c1nc2cc(F)cc(F)c2[nH]c1=O , can you help?
Result: > 100 µM

Task: Looking for the measured TGI of CCOC(=O)c1ccc(N(CCOS(=O)(=O)c2ccc(C)cc2)CCOS(=O)(=O)c2ccc(C)cc2)cc1 , can you help?
Result: 66.8 µM

Task: Looking for the measured TGI of Cc1ccc(NC2=CC(=O)C(=O)c3ccccc32)cc1 , can you help?
Result: 4.06 µM

----------
Consider the following compounds; for each one, report its TGI.
# System: U251 CNS
# protocol_text: NCI tumour cell line growth inhibition, 48 h

Task: Looking for the measured TGI of CC[C@]1(Cc2ccc(OC)c(OC)c2)C=[N+]([O-])O[C@H](OCc2ccccc2)[C@@H]1OC(C)=O , can you help?
Result: > 100 µM

Task: Looking for the measured TGI of COc1cccc(CCn2c(N)c(C#N)c3ccc([N+](=O)[O-])cc3c2=O)c1 , can you help?
Result: > 100 µM

Task: Looking for the measured TGI of CC12CCC(=O)[C@@]1(C)CCCC2O (stereo partly specified) , can you help?
Result: > 100 µM

Task: Looking for the measured TGI of CN1CCN(Cc2ccccc2)CC1CC#N (stereo unspecified) , can you help?
Result: > 100 µM

Task: Looking for the measured TGI of CCOC(OC1=C(C#N)CCCC1)C(CC)[Se]c1ccccc1[N+](=O)[O-] (stereo unspecified) , can you help?
Result: 30.9 µM

Task: Looking for the measured TGI of CCC(C)C(=O)OC1CCC=C2C=CC(C)C(CCC3CC(O)CC(=O)O3)C21 (stereo unspecified) , can you help?
Result: > 100 µM

Task: Looking for the measured TGI of Cc1ccc(C2C3Cc4ccccc4C3=NN2c2ccc(S(=O)(=O)NC(=O)Nc3ccccc3)cc2)cc1 (stereo unspecified) , can you help?
Result: 27.3 µM

Task: Looking for the measured TGI of Cc1ccc(CN2CCN(Cc3ccc(C)o3)C(C)C2)o1 (stereo unspecified) , can you help?
Result: > 100 µM

Task: Looking for the measured TGI of CCCCNCCCCCNc1cc(OC)cc2cccnc12 , can you help?
Result: > 100 µM

Task: Looking for the measured TGI of C1=C\CCCCN2CC[C@H]3[C@H](CCCC/C=C\CCCN4C[C@@H](CCCCC/1)C[C@@H]3C4)C2 , can you help?
Result: 16.5 µM

Task: Looking for the measured TGI of N#CCC(=O)Nc1ccccc1O , can you help?
Result: > 100 µM

----------
# System: SF-539 CNS
# protocol_text: NCI tumour cell line growth inhibition, 48 h
Consider the following compounds; for each one, report its TGI.
Field: numeric (µM). Do not append units.

Task: I'm curious: which TGI was measured for COc1cc(NCCC2CCCCN2)c2ncccc2c1OC (stereo unspecified) tested on SF-539 CNS?
Result: 28.5

Task: I'm curious: which TGI was measured for Cn1cc(-c2nc(-c3cn(C)c4ncccc34)cs2)c2ccccc21 tested on SF-539 CNS?
Result: 4.99

Task: I'm curious: which TGI was measured for COC1C(=O)N(SC)C1c1ccccc1Cl (stereo unspecified) tested on SF-539 CNS?
Result: 35.2

----------
# Tested on: CCRF-CEM leukemia
# protocol_text: NCI tumour cell line growth inhibition, 48 h
observation_type: TGI

Task: I'm curious: which TGI was measured for CN1N=C(c2ccccc2)c2cc(Cl)ccc2N=C1N/N=C/c1ccc(N(C)C)cc1 tested on CCRF-CEM leukemia?
Result: > 100 µM

Task: I'm curious: which TGI was measured for N#CCCN(CCC#N)c1ccc(/C=C(/NC(=O)Nc2ccccc2Cl)NC(=O)c2cc([N+](=O)[O-])ccc2Cl)cc1 tested on CCRF-CEM leukemia?
Result: > 100 µM

Task: I'm curious: which TGI was measured for C(=C\c1ccc(OCC2CO2)cc1)/C1=NCOC1 (stereo not given) tested on CCRF-CEM leukemia?
Result: 13.3 µM

Task: I'm curious: which TGI was measured for O=S(=O)(CF)OCCCCOS(=O)(=O)CF tested on CCRF-CEM leukemia?
Result: > 100 µM

Task: I'm curious: which TGI was measured for O=c1[nH]c(=O)n(C2CC(O)C(COP(=O)(OCC(Cl)(Cl)Cl)OCC(Cl)(Cl)Cl)O2)cc1F (stereo not given) tested on CCRF-CEM leukemia?
Result: > 100 µM

Task: I'm curious: which TGI was measured for C=CCN1C(=O)[C@]2(SC1=S)[C@H](c1cccc(Cl)c1)CN(C)[C@]21C(=O)NC2C=CC(Cl)=C[C@H]21 (stereo not given in full) tested on CCRF-CEM leukemia?
Result: 11.6 µM

Task: I'm curious: which TGI was measured for N#CC(C#N)=Cn1c(=S)[nH]c2ccc([N+](=O)[O-])cc21 tested on CCRF-CEM leukemia?
Result: > 100 µM

Task: I'm curious: which TGI was measured for CCC(=C(c1ccc(OCCN2CCCC2)cc1)c1ccc(OCCN2CCCC2)cc1)c1ccc(Cl)cc1 tested on CCRF-CEM leukemia?
Result: 1.58 µM

Task: I'm curious: which TGI was measured for COC(=O)[C@@H]1[C@H]2CC[C@]3(C)[C@@H](OC(C)=O)CC[C@H]3[C@@H]2CC[C@H]1C(C)=O tested on CCRF-CEM leukemia?
Result: > 100 µM

Task: I'm curious: which TGI was measured for O=C(CCN1CCCC1)c1ccc(Oc2ccc(F)cc2)cc1 tested on CCRF-CEM leukemia?
Result: 46.7 µM

Task: I'm curious: which TGI was measured for S=C1Cc2c(-c3ccccc3)cc(-c3ccc(Cl)cc3)nc2-c2ccccc2N1 tested on CCRF-CEM leukemia?
Result: > 100 µM

Task: I'm curious: which TGI was measured for COc1cc2c(cc1O)C(=O)O[C@@H]1CC=C3CCN(C)[C@H]3[C@H]21 tested on CCRF-CEM leukemia?
Result: > 25 µM

Task: I'm curious: which TGI was measured for CCOC(=O)c1cc2c(n1Cc1ccccc1OC)-c1oncc1CCC2 tested on CCRF-CEM leukemia?
Result: > 100 µM

Task: I'm curious: which TGI was measured for CC(C)(C)OC1=C(OC(C)(C)C)C(O)(c2ccc(Cl)cc2)C1=O (stereo not given) tested on CCRF-CEM leukemia?
Result: > 100 µM

Task: I'm curious: which TGI was measured for CC1(C)CN(CCNc2nccc(-c3c(-c4cccc(O)c4)nc4sccn34)n2)S(=O)(=O)N1 tested on CCRF-CEM leukemia?
Result: > 33.2 µM

Task: I'm curious: which TGI was measured for Cc1cc(C)c(C(=O)C(C)C(c2ccccc2)c2ccc(Cl)cc2)c(C)c1 (stereo not given) tested on CCRF-CEM leukemia?
Result: > 100 µM

Task: I'm curious: which TGI was measured for CCOC(=O)C1=NNC(C(=O)c2ccccc2)C1c1ccccc1 (stereo not given) tested on CCRF-CEM leukemia?
Result: > 100 µM

Task: I'm curious: which TGI was measured for O=C1c2c(O)cccc2Cc2cc(CO)cc(O)c21 tested on CCRF-CEM leukemia?
Result: > 100 µM

Task: I'm curious: which TGI was measured for O=C1NC(N2CCCCC2)=N/C1=C\c1ccco1 tested on CCRF-CEM leukemia?
Result: > 100 µM

Task: I'm curious: which TGI was measured for C[C@@H](Oc1cc(-c2cnn(C3CCNCC3)c2)cnc1N)c1c(Cl)cc(F)cc1Cl tested on CCRF-CEM leukemia?
Result: 9.88 µM
